# IC50 per record follows
# tested target: GR (Homo sapiens, UniProt P04150)
# Sequence (P04150 whole entry): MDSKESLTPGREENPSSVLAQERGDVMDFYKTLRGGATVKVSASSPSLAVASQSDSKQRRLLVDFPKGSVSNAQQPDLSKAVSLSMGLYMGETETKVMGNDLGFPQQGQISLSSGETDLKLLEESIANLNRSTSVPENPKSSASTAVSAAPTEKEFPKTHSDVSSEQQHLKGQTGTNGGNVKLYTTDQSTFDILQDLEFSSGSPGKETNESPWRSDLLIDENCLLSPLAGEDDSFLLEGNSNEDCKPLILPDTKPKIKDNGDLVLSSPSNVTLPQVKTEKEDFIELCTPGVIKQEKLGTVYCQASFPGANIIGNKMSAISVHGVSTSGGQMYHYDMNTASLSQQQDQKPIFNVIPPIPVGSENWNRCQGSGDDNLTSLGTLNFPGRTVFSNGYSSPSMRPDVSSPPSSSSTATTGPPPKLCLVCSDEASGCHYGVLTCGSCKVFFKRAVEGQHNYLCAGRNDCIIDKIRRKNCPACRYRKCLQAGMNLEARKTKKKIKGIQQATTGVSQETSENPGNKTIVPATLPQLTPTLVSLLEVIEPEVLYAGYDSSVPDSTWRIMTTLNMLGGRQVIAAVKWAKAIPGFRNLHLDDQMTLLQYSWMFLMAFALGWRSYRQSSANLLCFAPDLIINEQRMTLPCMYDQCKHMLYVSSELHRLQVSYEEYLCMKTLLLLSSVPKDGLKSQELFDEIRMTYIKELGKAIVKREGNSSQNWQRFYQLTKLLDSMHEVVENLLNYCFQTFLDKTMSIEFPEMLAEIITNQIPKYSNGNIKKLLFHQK
# measurement protocol: GR reporter gene assay in HEK293
# condition label: reporter gene assay, HEK293; agonist dexamethasone 1 nM; read-out: GR antagonistic activity (IC50)

// solved cases for IC50 follow
compound smiles	result type	test result
CCCCn1c(=O)c2cccc(OC)c2c2cc(C(O)(C(F)(F)F)C(F)(F)F)ccc21	IC50	> 20 µM
CCCCn1c(=O)c2c(OC)cc(OC)cc2c2cc(C(O)(C(F)(F)F)C(F)(F)F)ccc21	IC50	> 20 µM

Then this compound:
Ask: Quick one: give measured IC50 for CCCCn1c(=O)c2ccccc2c2cc(CO)ccc21
Reply: > 20 µM
